system: HeLa (cervical carcinoma) cells; assay: Cytotoxicity, colorimetric microculture assay (MTS assay); format: cell-based, human; settings: 96 h exposure
reported-endpoint: IC50 (nM)

mol_smiles=O=C1[O][Pt]2([NH][C@@H]3CCCC[C@H]3[NH]2)[O]C1=O val=2000
